Target: cellular PARG (Homo sapiens)
Construct: endogenous in cells; host or cells: HeLa
Sequence (Q86W56 whole entry): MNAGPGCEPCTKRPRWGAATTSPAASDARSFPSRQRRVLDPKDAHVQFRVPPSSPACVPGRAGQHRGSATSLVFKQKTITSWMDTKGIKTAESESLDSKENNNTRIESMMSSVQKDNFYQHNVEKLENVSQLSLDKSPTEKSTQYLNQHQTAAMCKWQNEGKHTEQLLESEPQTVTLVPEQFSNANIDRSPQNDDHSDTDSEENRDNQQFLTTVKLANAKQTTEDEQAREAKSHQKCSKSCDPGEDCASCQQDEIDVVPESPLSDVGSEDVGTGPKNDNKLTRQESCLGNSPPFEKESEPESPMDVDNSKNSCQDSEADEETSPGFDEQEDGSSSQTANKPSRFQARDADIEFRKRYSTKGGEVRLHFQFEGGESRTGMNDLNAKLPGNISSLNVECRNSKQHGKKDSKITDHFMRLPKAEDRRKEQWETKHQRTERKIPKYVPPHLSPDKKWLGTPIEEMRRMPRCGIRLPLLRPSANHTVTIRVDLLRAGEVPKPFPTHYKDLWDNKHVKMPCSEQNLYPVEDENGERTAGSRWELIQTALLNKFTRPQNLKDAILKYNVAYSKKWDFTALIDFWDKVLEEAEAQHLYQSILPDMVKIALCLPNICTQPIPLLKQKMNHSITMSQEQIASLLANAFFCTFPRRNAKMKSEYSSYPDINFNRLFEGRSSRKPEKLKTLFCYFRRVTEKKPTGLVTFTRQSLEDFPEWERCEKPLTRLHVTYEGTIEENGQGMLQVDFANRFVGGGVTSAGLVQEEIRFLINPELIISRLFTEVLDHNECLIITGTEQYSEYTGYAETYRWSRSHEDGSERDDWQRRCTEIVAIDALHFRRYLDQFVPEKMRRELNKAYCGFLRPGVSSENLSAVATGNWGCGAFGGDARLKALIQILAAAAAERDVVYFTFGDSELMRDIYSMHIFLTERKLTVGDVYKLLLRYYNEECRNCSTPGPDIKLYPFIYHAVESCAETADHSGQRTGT
Test: Nuclear PAR accumulation assay (immunofluorescence high-content imaging, MMS-treated HeLa cells)
Assay type: cell-based
Settings: 1 hour compound then MMS 50 μg/mL for an additional hour
Procedure: HeLa cells were plated at 15,000 cells/well in a 96-well plate the day before compound treatment and then treated with varying concentrations of test compound and incubated for 1 hour at 37° C.+5% CO2. […] Nuclear PAR accumulation was evaluated using high-content fluorescence microscopy. Four fields for each well were acquired at 20× magnification resulting in at least 1,000 cells analyzed per well. […] Both the average intensity per nucleus and percent PAR positive cells were quantified. […]
pIC50: −log10 of the molar value.
measure_name: pIC50

molecule: [2H]C([2H])(c1cnn(C)c1)N1C(=O)c2cc(S(=O)(=O)NC3(C)CC3)ccc2N2C1=NC[C@H]2C#C
pIC50: > 7.00
//
molecule: [2H]C([2H])(c1cnn(C)c1)N1C(=O)c2cc(S(=O)(=O)NC3(C)CC3)cc(Cl)c2N2C1=NC[C@@H]2C#CC1CC1
pIC50: 6.00 to 7.00
//
molecule: Cn1cc(CN2C(=O)c3cc(S(=O)(=O)NC4(C)CC4)ccc3N3C2=N[C@H]2CCNC[C@H]23)cn1
pIC50: 6.00 to 7.00
//
molecule: [2H]C([2H])(c1cnn(C)c1)N1C(=O)c2cc(S(=O)(=O)NC3(C)CC3)ccc2N2C1=NC[C@H]2C#Cc1nn(C)nc1C
pIC50: > 7.00
//
molecule: C#C[C@@H]1CN=C2N(Cc3cnn(C)c3)C(=O)c3cc(S(=O)(=O)NC4(C)CC4)cc(Br)c3N21
pIC50: > 7.00

Item COc1cc(C#CC2CN=C3N(C)C(=O)c4cc(S(=O)(=O)NC5(C)CC5)ccc4N32)ccn1 (centres unmarked) has what recorded pIC50?
> 7.00

Item "C[C@@H]1CN=C2N(C)C(=O)c3cc(S(=O)(=O)NC4(C)CC4)cc(-c4ccccc4CO)c3N21" has what recorded pIC50?
5.00 to 6.00

Item CN1C(=O)c2cc(S(=O)(=O)NC3(C)CC3)ccc2N2C1=NCC2C#Cc1cncc(C#N)c1 (centres unmarked) has what recorded pIC50?
> 7.00

Item "[2H]C([2H])(c1cnn(C)c1)N1C(=O)c2cc(S(=O)(=O)NC3(C)CC3)ccc2N2C1=NC[C@H]2C#Cc1cnc(C2CC2)nc1" has what recorded pIC50?
> 7.00

Item "CC(=O)N1CCn2ncc(CN3C(=O)c4cc(S(=O)(=O)NC5(C)CC5)ccc4N4C3=N[C@H]3CCC[C@H]34)c2C1" has what recorded pIC50?
6.00 to 7.00

Ref: patent US20260285875A1
